B1: glmS ribozyme (parent)
chain: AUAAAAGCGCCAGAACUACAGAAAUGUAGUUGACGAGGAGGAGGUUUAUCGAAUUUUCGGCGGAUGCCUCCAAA

Variants of: B1
Assay: self-cleavage kobs at 2500 uM GlcN6P; higher = faster cleavage; RNA array
Conditions: with glucosamine-6-phosphate
Fewer inactive variants are shown than the library holds.
assayMetric: self-cleavage kobs at 2500 uM GlcN6P (s⁻¹)

* AUAAAAGCGCCAGAACUACAGAAAUGUAGUUGACGAGGAGGAGGUUGAUCGAAUUUCCGGCGGAUGCAUCCAAA | 8.58e-05
* AUAAACGCGCCAGAACUACAGAAAUGUAGUUGACGAGGAGGAGGUUUAUCGAAUAUUCGGCGGAUGCCUCCAAA | 7.01e-05
* AUAAAAGCGCCAGAACUACAGAAAUGUAGUUGACGAGGAGGAGGUUUAUCGAAUUUUCGGCGGAUGCUUUCAAA | 3.68e-05
* AUAAAAGCGCCAGGACUACAGAAAUGUAGUUGACGAGGCGGAGGUUUAUCGAAUUUUCGGCGGAUACCUCCAAA | 0.00447
* AUAAAAGCGCCAGAACUACAGAAAUGUAGUUGACGAGGAGGAGGUUUCUCGAAUUUUCGGCGGAUGCCUCUAAA | 0.000123
* AUAAAAGCGCCAGAACUACAGAAAUGUAGUUGACGAGGAGGAGAUUUAUCGAAUUUUCGGCGGAUGUCUCCAAA | 0.006
* AUAAAAGCGCCAGAACUACAGAAAUGUAGUGGACGAGGAGGAGGUUUAUCGAAUUUUCGGCGGAUGUCUCCAAA | 0.00179
* AUAAAAGCGCCAGGACUACAGAAAUGUAGUUGACGAGGAGGAGGUUUAUCGUGUUUUCGGCGGAUGCCUCCAAA | 0.000141
* AUAAAAGCGCCAGAACUACAGAAAUGUAGUUGACGAGGAGGAGGUUUCUCGAAAUUUCGGCGGAUGCCUCCAAA | 0.000342
* AUAAAAGCGCCAGAGCUACAGAAAUGUAGUUGACGAGGAGGAGGUUUAUCGAAUUUUCGGCGGCUGCCUCUAAA | 7.46e-05
* AUAAAAGCGCCAGGAUUACAGAAAUGUAGUUGACGAGGAGGAGGUUUAUCGAUUUUUCGGCGGAUGCCUCCAAA | 0.0165
* AUAAAAGCGCCCGAACUACAGAAAUGUAGUUGACGAGGAGGAGGUUUAUCGACUUUUCGGCGGAUGCCUCCAAA | 0.00223
* AUAAAAGCGCCAGUACUACAGAAAUGUAGUAGACGAGGAGGAGGUUUAUCGAAUUUUCGGCGGAUGCCUCCAAA | 0.00761
* AUAAAAGCGCCAGAACUACAGAAAUGUAGUUGACGAGGAGGAGGUUUAUCGAAUUUUCGGCGGAUGCAUCUAAA | 2.17e-05
* AUAAAAGCGCCAGAACUACAGAAAUGUAGUUGACGAGGUCGAGGUCUAUCGAAUUUUCGGCGGAUGCCUCCAAA | 0.000277
* AUAAAAGCGGCAGAAAUACAGAAAUGUAGUUGACGAGGAGGAGGUUUAUCGAUUUUUCGGCGGAUUCCACCAAA | 4.65e-05
* AUAAAAGCGCCAGAACUACAGAAAUGUAGCUGACGAGGAGGAGGUUUAUCGAAUUUUCGGCGGAUGCCUCAAAA | 6.1e-05
* AUAAAAGCGCCAGAAUUACAGAAAUGUAGUUGACGAGGAGGAGGUUUAUCGAGCUUUCGGCGGAUGCCUCCAAA | 0.00421
* AUAAAAGCGCAAGGACUACAGAAAUGUAGUUGACGAGGAUGAGGUUUAUCGAAUUUUCGGCGGAUGCCUCCAAA | 5.01e-05
* AUAAAAGCGACAGAACUACAGAAAUGUAGUUGACGAGGAGGAGGUUUAUGGAAUUUUCGGCGGAGGCCUCCAAA | 4.21e-05
* AUAAAAGCGCCAGAACUACAGAAAUGUAGUUGACGAGGAGGAGGUUUCUCGAAUUUUCGGCGGAUGACUCCAAA | 0.000104
* AUAAAAGCGCCAGAACUACAGAAAUGUAUUUUACGAGAAGGAGGUUUAUCGAAUUUUCGGAGGAUGUCUCCAAA | 0.00034
* AUAAAAGCGCCAGAACUACAGAAAUGUAGUUGACGAGGAGGAGGUAUAUCGAAUUUUCGGCGGAUGGUUCCAAA | 0.000113
* AUAAAAGCGCCAGAACUACAGAAAUGUAGUUGACGAGGAGUAGGUUUAUCGUAUAUUCGGCGGAUGCCUUCAAA | 6.63e-05
* AUAAAAGCGCCAGAACUACAGAAAUGUAGUUGACGAGGAGGUGGCUUAUCGAAUAUUCGGCGGAUGCCUCCAAA | 6.42e-05
* AUAAAAGCGCCGGAACUACAGAAAUGUAGUUGACGAGGAGGAGGUUUAUCGAAUGUUCGGCGGAUGCCUCCAAA | 0.000784
* AUAAAAGCGCCAGAACUACAGAAAUGUAGUUGACGAGGAGGAGGUUGAUCGAAUUUUCGGCGGAUGCCUACAAA | 0.000111
* AUAAAAGCGCGAGAACUACAGAAAUGUAUUUGACGAGGAGGAGGUUUUUCUAAUUUUCGGCGGAUGCCUCGAAA | 0.000485
* AUAAAAGCGCCAGGACUACAGAAAUGUAGUUGACGAGGAGGAGGUUUAUCGAAUUUUCGGCGGAUCCCUCCAAA | 0.00114
* AUAAAUGCGCCUGAACUACAGAAAUGUAGUUGACGAGGAGGAGGUUUAUCGAAGUUUCGGCGGAUGCCUCCAAA | 0.000203
* AUAAAAGCGCCCGAACUACAGAAAUGUAGUUGACGAGGAGGAGGUUUAUCGAAUUUUCGGCGGAUGGCUCCAAA | 0.00106
* AUAAAAGCGCCAGAACUACAGAAAUGUACUUGACGAGGAGGAGGUUUUUCGAAUUUUCGGCGGAUGCCGCCAAA | 7.04e-05
* AUAAAAGCGCCAGAACUACAGAAAUGUAGUUGACGAGGACGGGGUUUAUCGAAUUUUCGGCGGAUGCCUCCAAA | 0.0025
* AUAAAAGCGCCAGAACUACAGAAAUGUACUUGACGAGGAGGAGGUUUAUCGAAUUUUAGGCGGAUGCCUCCAAA | 8.42e-05
* AUAAAAGCGCCAGAACUACAGAAAUGUAGUUGACGAGGAGGGGGCUUAUCGAAUUUUCGGCGGAUGCCUUCAAA | 0.00265
* AUAAAAGCGCCAGAAAUACAGAAAUGUAGUUGACGAGGAGGAGGUUUAUCGAAUUUUCGGCGGAUGCCGCCAAA | 6.89e-05
* AUAAAAGCGCUAGAACUACAGAAAUGUAGGUGACGAGGAGGAGGAUUAUCGAAUUUUCGGCGGAUGCCUCCAAA | 0.00111
* AUAAAAGCGCCAGUACUACAGAAAUGUAGUUGACGAGGAGGAGGUUCAUCGAAUUUUCGGCGGAUGCCUCCAAA | 0.000238
* AUAAAAGCGCCAGAACUACAGAAAUGUAGUUGACGAGGAGGAGGGUUAUCGUAUUUUCGGCGGAUGCCUCCAAA | 7.57e-05
* AUAAAAGCGCCAGAACUACAGAAAUGUAGUUAACGAGGAGGAGGUUUAUCGAAUUUUCGGCGGAUGUCUCGAAA | 9.42e-05
* AUAAAAGCGCCAGAACUACAGAAAUGUAGUUGACGAGGAGGAGGUUUAUCGUAUUGUCGGCGGAUGCCUCCAAA | 5.36e-05
* AUAAAAGCGCCAGAACUACAGAAAUGUAGUUGACGAGGAGGAGGUUUAUCGAAUUUUCGGCGGAUCCCUCGAAA | 4.07e-05
* AUAAAAGCGCCAGAACUACAGAAAUGUAGUCGACGAGGAGGAGGUUUAUCGAGUUUUCGGCGGAUGCCUUCAAA | 0.00272
* AUAAAAGCGCCAGAACUACAGAAAUGUAGUUGACGAAGAGGUGGUUUAUCGAAUUUUCGGCGGAUGCCUCCAAA | 0.00052
* AUAAACGCGCCAGAACUACAGAAAUGUAGUUGACGAGGAGGAGGUUUAUCGAACUUUCGGCGGAUGCCUCCAAA | 6.36e-05
* AUAAAAGCGCCAGAACUACAGAAAUGUAGUUGACGAGGAGGAGGUUUAUCGCAUUUUCGGCGGAUGCCUUCAAA | 5.72e-05
* AUAAAAGCGCCAGGACUACAGAAAUGUAGUUGACGAGGAGGAGGUUUAUCGAAUUUUGGGCGGAUGCCUCCAAA | 0.000115
* AUAAAAGCGCCAGCACUACAGAAAUGUAGUUGACGAGGAGGAGGCUUAUCGAAUUUUCGGCGGAUGCCUCCAAA | 0.000604
* AUAAAAACGCCUGAACUACAGAAAUGUAGUUGACGAGGAGGAGGUUUAUCGAAUUUUCGGCGGAUGCCUCCAAA | 2.22e-05
* AUAAAAGCGCCAGAACUACAGAAAUGUAGUUGACGAGGAGGAGGUUUAUCGAAUGUUUGGCGGAUGCCUUCAAA | 4.84e-05
* AUAAAAGCGCAAGAACUACAGAAAUGUAGUUGACGAGGAGGAGGUUUAUCGAGUUUUCGGCGGAUGCCUCCAAA | 0.000112
* AUAAAAGCGCCAGUACUACAGAAAUGUAGUUGACGAGGAGGAGGAAUAUCGAAUUUUCGGCGGAUGCCUCCAAA | 0.00178
* AUAAAAGCGCCAGAACUACAGAAAUGUAGUUGACGAGGAGGAGGUGUAUCGAGUUUUCGGCGGAUGCCUCCAAA | 0.00267
